Molecular target: T1, hIL-18Rα ECD-Fc fusion protein (human, UniProt Q13478 22-329)
T1 construct: extracellular domain; captured on Protein A sensor
T1 sequence (looked up): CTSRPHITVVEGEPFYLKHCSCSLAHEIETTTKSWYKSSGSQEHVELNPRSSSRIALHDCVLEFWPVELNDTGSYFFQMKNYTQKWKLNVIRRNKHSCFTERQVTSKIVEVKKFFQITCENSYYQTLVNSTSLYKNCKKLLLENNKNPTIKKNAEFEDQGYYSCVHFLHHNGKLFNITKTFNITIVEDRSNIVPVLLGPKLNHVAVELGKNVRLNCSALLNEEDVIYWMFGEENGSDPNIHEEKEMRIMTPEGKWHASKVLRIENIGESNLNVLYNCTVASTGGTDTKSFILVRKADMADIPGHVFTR
Assay: BLI (Octet RED96), hIL-18Rα ECD-Fc on Protein A sensor
Protocol: The affinities of IL-18 variant polypeptides for hIL-18Rα were assessed by Biolayer Interferometry (BLI) on Octet RED96 using Protein A sensor coated with hIL-18Rα ECD-Fc fusion protein, and WT hIL-18 was used as a control.
Kind request: treat 300000 M⁻¹ s⁻¹ as inclusive, so kon at 300000 M⁻¹ s⁻¹ or higher is Condition met, anything lower is Condition not met.

Solved entries:
{"columns": ["BINDER", "CLASSIFICATION"],
 "data": [
  ["IL-18 variant polypeptide M30 (ligand) YFPKLLSKLSVIRNLNDQVLFIDQGNRPLFEDMTDSDCRDNAPRTIFIISMYKHSTVRGMAVTISVKCEKISTLSCENKIISFKEMNPPDSIKDTKSDIIFFQRSVPGHDNKMQFESSSYEGYFLACEKERDLFKLILKKEDELGDRSIMFTVQNED", "Condition met"],
  ["IL-18 variant polypeptide M27 (ligand) YFPKLRSKLSVIRNLNDQVLFIDQGNRPLFEDMTDSDCRDNAPRTIFIISMYKHSYTRGMAVTISVKCEKISTLSCENKIISFKEMNPPDVIKDTKSDIIFFQYSVPGHDNKMQFESSSYEGYFLACEKERDLFKLILKKEDELGDRSIMFTVQNED", "Condition not met"],
  ["IL-18 variant polypeptide M32 (ligand) YFPKLGSKLSVIRNLNDQVLFIDQGNRPLFEDMTDSDCRDNAPRTIFIISMYKSSSRRGMAVTISVKCEKISTLSCENKIISFKEMNPPDNIKDTKSDIIFFQRSVPGHDNKMQFESSSYEGYFLACEKERDLFKLILKKEDELGDRSIMFTVQNED", "Condition met"],
  ["IL-18 variant polypeptide M11 (ligand) YFPKLRSKLSVIRNLNDQVLFIDQGNRPLFEDMTDSDCRDNAPRTIFIISMYKSSRNRGMAVTISVKCEKISTLSCENKIISFKEMNPPDGIKDTKSDIIFFQTSVPGHDNKMQFESSSYEGYFLACEKERDLFKLILKKEDELGDRSIMFTVQNED", "Condition not met"]
]}

Query: Test whether the binder IL-18 variant polypeptide M19 (ligand) YFPKLKSKLSVIRNLNDQVLFIDQGNRPLFEDMTDSDCRDNAPRTIFIISMYKHSEQRGMAVTISVKCEKISTLSCENKIISFKEMNPPDAIKDTKSDIIFFQRSVPGHDNKMQFESSSYEGYFLACEKERDLFKLILKKEDELGDRSIMFTVQNED records kon of 300000 M⁻¹ s⁻¹ or higher.
Response: Condition met

Query: // inclusive: kon at least 300000 M⁻¹ s⁻¹? input: IL-18 variant polypeptide M31 (ligand) YFPKLRSKLSVIRNLNDQVLFIDQGNRPLFEDMTDSDCRDNAPRTIFIISMYKHSIHRGMAVTISVKCEKISTLSCENKIISFKEMNPPDIIKDTKSDIIFFQYSVPGHDNKMQFESSSYEGYFLACEKERDLFKLILKKEDELGDRSIMFTVQNED
Response: Condition met

Query: Please indicate if the recorded kon for IL-18 variant polypeptide M16 (ligand) YFPKLRSKLSVIRNLNDQVLFIDQGNRPLFEDMTDSDCRDNAPRTIFIISMYKSSRNRGMAVTISVKCEKISTLSCENKIISFKEMNPPDGIKDTKSDIIFFQSSVPGHDNKMQFESSSYEGYFLACEKERDLFKLILKKEDELGDRSIMFTVQNED meets or exceeds 300000 M⁻¹ s⁻¹.
Response: Condition met
